Data provenance is patent US20230183218A1.

Target: Rat M4 (Rattus norvegicus, UniProt P08485)
Construct: expressed in transfected cells; host or cells: CHO-K1 (ATCC), stably co-expressing chimeric G protein Gqi5
Assay: mAChR M4 cell-based functional assay (calcium flux, antagonist mode vs EC80 acetylcholine), rat M4/Gqi5/CHO-K1 cells
Details: CHO-K1; % ACh maximum at 30 μM; rat M4; read-out: Rat M4 Emin (%)
measurement_type: remaining activity at 30 µM (%)

Consider the worked cases shown below.
Fc1ccc(Cl)c(-c2ccc(N[C@H]3C[C@@H]4CN(C5CCOCC5)C[C@@H]4C3)nn2)c1 [compound 2]: 6
C=CCN1C(=O)C(C)(C)c2cc(N[C@H]3C[C@@H]4CN(CCC(C)(C)C)C[C@@H]4C3)nnc21 [compound 71]: 5

(A) CC1(C)CC(N2C[C@H]3C[C@H](Nc4ccc(S(=O)(=O)C5CCCCC5)nn4)C[C@H]3C2)CCO1 (stereo partly drawn) [compound 36]
(B) O=S(=O)(c1ccccc1)c1ccc(N[C@H]2C[C@@H]3CN(Cc4ccccn4)C[C@@H]3C2)nn1 [compound 25]
(C) CC(C)(C)CCN1C[C@H]2C[C@H](Nc3ccc(S(=O)(=O)c4ccccc4)nn3)C[C@H]2C1 [compound 50]
(D) Fc1ccc(Cl)c(-c2ccc(N[C@H]3C[C@@H]4CN(C5COC5)C[C@@H]4C3)nn2)c1 [compound 14]
(E) Cn1cc2cc(-c3ccc(N[C@H]4C[C@@H]5CN(C6CCOCC6)C[C@@H]5C4)nn3)ccc2n1 [compound 62]
QUERY: hey, can you rank those compounds up there by remaining activity at 30 µM? biggest number first please As an answer, provide the labels arranged in the order called for.
RESULT: D, B, E, A, C
(D: 51%, B: 26%, E: 11%, A: 7%, C: 4%)

* * *

Target: Rat M4 (Rattus norvegicus)
Assay: mAChR M4 cell-based functional assay (calcium flux, antagonist mode vs EC80 acetylcholine), rat M4/Gqi5/CHO-K1 cells
Conditions: decrease of response elicited by EC80 acetylcholine; rat M4/Gqi5 CHO-K1 cells
pIC50: −log10 of the molar value.
measurement_type: pIC50

O=S(=O)(c1ccccc1)c1ccc(N[C@H]2C[C@@H]3CN(Cc4ccc5c(c4)OCO5)C[C@@H]3C2)nn1: 6.10
CC(C)(O)CN1C[C@H]2C[C@H](Nc3ccc(-c4cc(F)ccc4Cl)nn3)C[C@H]2C1: 5.87

(P) O=S(=O)(c1ccccc1)c1nnc(N[C@H]2C[C@@H]3CN(CC4CCOCC4)C[C@@H]3C2)cc1NC1CC1
(Q) Cc1nn(C)cc1-c1ccc(N[C@H]2C[C@@H]3CN(C4CCOC(C)(C)C4)C[C@@H]3C2)nn1 (stereo partly shown)
QUERY: Which record shows the lower pIC50: the first, P , or the second, Q ? Provide the label of your selected option as the answer.
RESULT: Q
(Q: 5.19, P: 6.54)

* * *

Biological target: Human M4 (Homo sapiens)
Construct: expressed in transfected cells; host or cells: CHO-K1 (ATCC), stably co-expressing chimeric G protein Gqi5
Test: mAChR M4 cell-based functional assay (calcium flux, antagonist mode vs EC80 acetylcholine), human M4/Gqi5/CHO-K1 cells
Conditions: CHO-K1; % ACh maximum at 30 μM; human M4; read-out: Human M4 Emin (%)
measurement_type: remaining activity at 30 µM (%)

(A) Fc1ccc(Cl)c(-c2ccc(N[C@H]3C[C@@H]4CN(C5CCC6(CCCCC6)CC5)C[C@@H]4C3)nn2)c1
(B) CC1(C)CC(N2C[C@H]3C[C@H](Nc4ccc(-c5ccc6nccn6c5)nn4)C[C@H]3C2)CCO1 (stereo partly shown)
(C) Fc1ccc(Cl)c(-c2ccc(N[C@H]3C[C@@H]4CN(C5CCCC5)C[C@@H]4C3)nn2)c1
QUERY: Consider the molecules listed above. Rank them by remaining activity at 30 µM in ascending numerical order. As an answer, provide the labels arranged in the order called for.
RESULT: C, A, B

(a) O=S1(=O)CCC(N2C[C@H]3C[C@H](Nc4ccc(-c5cc(F)ccc5Cl)nn4)C[C@H]3C2)CC1
(b) O=S(=O)(c1ccc(N[C@H]2C[C@@H]3CN(Cc4ccccn4)C[C@@H]3C2)nn1)C1CCCCC1
QUERY: Identify the entry with the larger remaining activity at 30 µM. Options: a and b Provide the label of your selected option as the answer.
RESULT: a

(I) Cc1cc(CN2C[C@H]3C[C@H](Nc4ccc(S(=O)(=O)c5ccccc5)nn4)C[C@H]3C2)nn1C
(II) O=S(=O)(c1ccc(N[C@H]2C[C@@H]3CN(CC4CCOCC4)C[C@@H]3C2)nn1)C1CCCCC1
QUERY: Which record shows the lower remaining activity at 30 µM: the first, I , or the second, II ? Provide the label of your selected option as the answer.
RESULT: II
(II: 4%, I: 8%)

* * *

Target: Rat M4 (Rattus norvegicus)
Construct: expressed in transfected cells; host or cells: CHO-K1 (ATCC), stably co-expressing chimeric G protein Gqi5
Sequence (P08485 1-478): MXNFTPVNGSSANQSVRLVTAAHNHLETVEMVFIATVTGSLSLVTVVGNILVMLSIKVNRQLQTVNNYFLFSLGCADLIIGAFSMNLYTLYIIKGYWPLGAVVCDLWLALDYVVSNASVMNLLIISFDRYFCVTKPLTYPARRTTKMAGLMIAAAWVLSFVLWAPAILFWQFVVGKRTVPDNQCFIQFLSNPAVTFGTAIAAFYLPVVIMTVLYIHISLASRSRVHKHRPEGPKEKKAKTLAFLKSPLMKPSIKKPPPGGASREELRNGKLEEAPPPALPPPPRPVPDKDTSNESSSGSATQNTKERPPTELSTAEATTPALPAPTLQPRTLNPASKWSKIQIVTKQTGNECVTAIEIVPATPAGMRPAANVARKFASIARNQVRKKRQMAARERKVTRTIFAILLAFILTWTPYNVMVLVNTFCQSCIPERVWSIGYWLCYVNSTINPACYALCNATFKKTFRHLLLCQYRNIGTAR
Assay: mAChR M4 cell-based functional assay (calcium flux, antagonist mode vs EC80 acetylcholine), rat M4/Gqi5/CHO-K1 cells
Conditions: CHO-K1; % ACh maximum at 30 μM; rat M4; read-out: Rat M4 Emin (%)
Procedure: Human or rat M4 cDNA, along with the chimeric G protein Gqi5, were transfected into Chinese hamster ovary (CHO-K1) cells purchased from the American Type Culture Collection using Lipofectamine2000. […] Calcium flux was measured using the Functional Drug Screening System (FDSS) 6000 or 7000 (Hamamatsu Corporation, Tokyo, Japan) as an increase in the fluorescent static ratio. […] Agonist activity was analyzed as a concentration-dependent increase in calcium mobilization upon compound addition. […]
measurement_type: remaining activity at 30 µM (%)

O=S(=O)(c1ccccc1)c1ccc(N[C@H]2C[C@@H]3CN(CC4CCOCC4)C[C@@H]3C2)nn1: 11
O=S(=O)(c1ccc(N[C@H]2C[C@@H]3CN(CC4CCOCC4)C[C@@H]3C2)nn1)C1CCCCC1: 5

(I) O=S(=O)(c1ccc(N[C@H]2C[C@@H]3CN(Cc4ccc5[nH]ccc5c4)C[C@@H]3C2)nn1)C1CCCCC1
(II) O=S(=O)(c1ccccc1)c1nnc(N[C@H]2C[C@@H]3CN(CC4CCOCC4)C[C@@H]3C2)cc1NC1CC1
QUERY: Identify the entry with the larger remaining activity at 30 µM. Options: I and II Provide the label of your selected option as the answer.
RESULT: I

(A) CC1(C)CC(N2C[C@H]3C[C@H](Nc4ccc(-c5cccc(F)c5)nn4)C[C@H]3C2)CCO1 (some centres unmarked)
(B) O=C(Nc1ccccc1)c1ccc(N[C@H]2C[C@@H]3CN(CC4CCOCC4)C[C@@H]3C2)nn1
QUERY: Which record shows the lower remaining activity at 30 µM: the first, A , or the second, B ? Provide the label of your selected option as the answer.
RESULT: A
(A: 5%, B: 22%)

* * *

Target: Human M4 (Homo sapiens, UniProt P08173)
Sequence (P08173 1-479): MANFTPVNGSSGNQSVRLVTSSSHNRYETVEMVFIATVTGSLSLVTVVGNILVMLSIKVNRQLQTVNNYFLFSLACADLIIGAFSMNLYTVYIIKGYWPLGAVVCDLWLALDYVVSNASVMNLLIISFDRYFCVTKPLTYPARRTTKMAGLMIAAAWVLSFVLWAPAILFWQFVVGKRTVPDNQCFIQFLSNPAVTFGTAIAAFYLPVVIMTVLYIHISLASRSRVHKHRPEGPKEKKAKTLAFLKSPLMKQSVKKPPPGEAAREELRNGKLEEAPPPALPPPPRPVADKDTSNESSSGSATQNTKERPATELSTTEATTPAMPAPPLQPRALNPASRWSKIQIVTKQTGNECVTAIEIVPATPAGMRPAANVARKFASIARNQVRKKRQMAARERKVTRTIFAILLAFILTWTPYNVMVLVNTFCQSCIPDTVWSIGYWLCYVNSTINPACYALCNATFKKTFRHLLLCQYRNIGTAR
Test: mAChR M4 cell-based functional assay (calcium flux, antagonist mode vs EC80 acetylcholine), human M4/Gqi5/CHO-K1 cells
Conditions: decrease of response elicited by EC80 acetylcholine; human M4/Gqi5 CHO-K1 cells
measurement_type: IC50 (nM)

Cc1cc(CN2C[C@H]3C[C@H](Nc4ccc(S(=O)(=O)C5CCCCC5)nn4)C[C@H]3C2)nn1C: 181

(1) CC1(C)CCC(N2C[C@H]3C[C@H](Nc4ccc(-c5cc(F)ccc5Cl)nn4)C[C@H]3C2)CC1
(2) Fc1ccc(Cl)c(-c2ccc(N[C@H]3C[C@@H]4CN(C5CCCC5)C[C@@H]4C3)nn2)c1
(3) O=C(Nc1cc(F)ccc1Cl)c1ccc(N[C@H]2C[C@@H]3CN(CC4CCOCC4)C[C@@H]3C2)nn1
QUERY: hey, can you rank those compounds up there by IC50? biggest number first please As an answer, provide the labels arranged in the order called for.
RESULT: 3, 2, 1
(3: 2060 nM, 2: 27.3 nM, 1: 2.79 nM)

(A) O=C(c1ccc(N[C@H]2C[C@@H]3CN(CC4CCOCC4)C[C@@H]3C2)nn1)N1CCOCC1
(B) Cc1cccnc1CN1C[C@H]2C[C@H](Nc3ccc(S(=O)(=O)C4CCCCC4)nn3)C[C@H]2C1
QUERY: Identify the entry with the larger IC50. Options: A and B Provide the label of your selected option as the answer.
RESULT: B

(I) CC1(C)CC(N2C[C@H]3C[C@H](Nc4ccc(-c5cccnc5)nn4)C[C@H]3C2)CCO1 (stereo partly shown)
(II) Fc1ccc(Cl)c(-c2ccc(N[C@H]3C[C@@H]4CN(C5CCCCCC5)C[C@@H]4C3)nn2)c1
QUERY: Which record shows the lower IC50: the first, I , or the second, II ? Provide the label of your selected option as the answer.
RESULT: II

(1) Fc1ccc(Cl)c(-c2ccc(N[C@H]3C[C@@H]4CN(C5CCOCC5)C[C@@H]4C3)nn2)c1
(2) Cc1cc(CN2C[C@H]3C[C@H](Nc4ccc(S(=O)(=O)c5ccccc5)nn4)C[C@H]3C2)nn1C
QUERY: Identify the entry with the larger IC50. Options: 1 and 2 Provide the label of your selected option as the answer.
RESULT: 2
(2: 906 nM, 1: 64.7 nM)

(P) CC(C)(O)CN1C[C@H]2C[C@H](Nc3ccc(-c4cc(F)ccc4Cl)nn3)C[C@H]2C1
(Q) CC(C)(C)CCN1C[C@H]2C[C@H](Nc3ccc(S(=O)(=O)C4CCCCC4)nn3)C[C@H]2C1
(R) Cc1cc2c(cc1CN1C[C@H]3C[C@H](Nc4ccc(S(=O)(=O)c5ccccc5)nn4)C[C@H]3C1)OCO2
(S) Fc1ccc(Cl)c(-c2ccc(N[C@H]3C[C@@H]4CN(C5CCCCC5)C[C@@H]4C3)nn2)c1
(T) Fc1ccc(Cl)c(-c2ccc(N[C@H]3C[C@@H]4CN(C5CCC6(CCCCC6)CC5)C[C@@H]4C3)nn2)c1
QUERY: hey, can you rank those compounds up there by IC50? biggest number first please As an answer, provide the labels arranged in the order called for.
RESULT: R, T, P, Q, S
(R: 1000 nM, T: 25.7 nM, P: 13.5 nM, Q: 5.75 nM, S: 2.85 nM)
